// compounds with Ki on Tyrosine-protein kinase JAK3 (Homo sapiens), multi-source literature

Record excerpt, results attached:
compound | result
Nc1nn2cc(-c3ccc(C(=O)N4CCC(N)CC4)cn3)cnc2c1-c1ccccn1 | 500 to 5000 nM
CN(c1nc(-c2c[nH]c3ncccc23)ncc1F)C1(C(=O)NCC(F)(F)F)CC1 | ≥ 100 nM
CC(=O)N1[C@H](C)CN(c2cc(-n3cnc(Nc4ccc(NC(=O)OC(C)C)cc4)n3)ccn2)C[C@@H]1C | 10 to 1000 nM

For every listed record, write down its Ki.
1. CCN1CCN(C(=O)c2ccc(-c3cnc4c(-c5ccccn5)c(N)nn4c3)nc2)CC1
2. COc1ccc(Nc2nc(N)n(-c3nccc(NC(C)(C)C(=O)NCC(F)(F)F)n3)n2)cc1
3. Nc1nn2cc(-c3ccnc(N4CCC(N5CCCC5)CC4)c3)cnc2c1-c1ccccn1
4. CCOc1cccc(Nc2ncn(-c3ccccc3)n2)c1
5. C[C@H](Nc1cc(-c2c(N)nn3cccnc23)nc(OCC2CCCN(C)C2)n1)c1ccc(F)cc1 (some centres unmarked)
6. CC#CCOc1nc(N[C@@H](C)c2ccc(F)cc2)cc(-c2c(N)nn3cccnc23)n1
7. C=CCN(C(=O)c1cc(-c2ncnc3[nH]ccc23)co1)[C@@H](C)c1ccccc1
8. O=C(c1cc(-c2ncnc3[nH]ccc23)c[nH]1)N(CCC(F)(F)F)C1CCCC1

1. 500 to 5000 nM
2. 1000 to 10000 nM
3. > 5000 nM
4. > 1000 nM
5. 10 to 100 nM
6. 100 to 500 nM
7. 100 to 500 nM
8. 100 to 500 nM

---

pKi: −log10 of the molar value.
// molecules with pKi on Tyrosine-protein kinase JAK3 (Homo sapiens, UniProt P52333), multi-source literature

molecule | assay_target | pKi
Nc1nn2cc(-c3ccncc3)cnc2c1C(=O)c1ccccc1 | Tyrosine-protein kinase JAK3 (Homo sapiens, UniProt P52333) | 5.30 to 6.30

For every listed record, write down its pKi.
1. Nc1nn2cc(-c3ccc(N4CCN(CCO)CC4)nc3)cnc2c1-c1ccccn1
2. CC1CC[C@@H](C)N1C(=O)c1coc(-c2ncnc3[nH]ccc23)c1 (stereo partly shown)
3. COC[C@H](Nc1nc(-c2c[nH]c3ncncc23)ncc1F)C(=O)NCC(F)(F)F
4. C[C@H](Nc1cc(-c2cnn3cccnc23)ncn1)c1ccc(Cl)cc1
5. Cc1c[nH]c2ncnc(-c3cnn(C)c3)c12
6. Cc1cc(C2Nc3ccccc3-c3ccnc4[nH]cc2c34)cc(C)c1O (stereo not shown)
7. O=C(C1CCCO1)N1CCN(c2cc(-n3cnc(Nc4ccccc4)n3)ccn2)CC1 (stereo not shown)
8. Cn1cc(-c2ncnc3[nH]ccc23)cc1C(=O)N(CCC(F)(F)F)CC1CC1

["5.30 to 6.30", "5.30 to 6.30", "> 6.30", "6.30 to 7.00", "6.30 to 7.00", "5.60 to 6.60", "< 6.00", "> 7.00"]

For every listed record, write down its pKi.
1. CN1CCC(N(C)c2ccc(-c3cnc4c(-c5ccccn5)c(N)nn4c3)cn2)CC1
2. O=C(NCC(F)(F)F)C(CC(F)(F)F)Nc1nc(-c2c[nH]c3ncncc23)ncc1F (stereo not shown)

["< 5.30", "> 6.30"]

For every listed record, write down its pKi.
1. Cc1cccc(-c2c(N)nn3cc(-c4ccncc4)cnc23)n1
2. N#CCC(=O)N1CCC(c2cnc3[nH]cc(-c4oncc4-c4cccc(F)c4F)c3c2)CC1

1. < 5.30
2. 6.00 to 6.70

---

// molecules with pKi on Tyrosine-protein kinase JAK3 (Homo sapiens), multi-source literature
pKi: −log10 of the molar value.

Record excerpt, results attached:
molecule | result
Nc1nn2cc(/C=C/c3ccccc3)cnc2c1-c1ccccn1 | < 5.30
C[C@H](Nc1cc(-c2cnn3cccnc23)nc(OCCCN(C)C)n1)c1ccc(F)cc1F | 7.00 to 8.00
O=C1COc2ccc(-c3ccnc(Nc4cccc(-c5ccccc5)c4)n3)cc2N1Cc1cccnc1 | > 5.30
Nc1nn2cc(-c3ccccc3O)cnc2c1-c1ccccn1 | < 5.30
CCN(CCO)C(=O)c1cccc(-c2cnc3c(-c4ccccn4)c(N)nn3c2)n1 | < 5.30
Fc1cc(F)c(C2Nc3ccccc3-c3ccnc4[nH]cc2c34)cc1F (stereo not drawn) | 5.60 to 6.60
NS(=O)(=O)c1cccc(Nc2nccc(-c3ccc4c(c3)NC(=O)CO4)n2)c1 | > 6.00
Cc1cc(Nc2cc(N3CC(F)(C4CC4)C3)nc(Sc3ccc(NC(=O)C4CC4)cc3)n2)n[nH]1 | 6.54
CCC[C@@H](Nc1cc(-c2cnn3cccnc23)ncn1)c1ccc(F)cc1F | 6.30 to 7.00
CC(C)[C@@](C)(Nc1nc(-c2c[nH]c3ncncc23)ncc1F)C(=O)NCC(F)(F)F | > 6.30

For every listed record, write down its pKi.
1. CC(C)(C)OC(=O)N1CC=C(c2cccc(-c3c[nH]c4ncncc34)n2)CC1
2. Cc1cnc2c(-c3cc(NCc4cc(Cl)ccc4Cl)ncn3)c(N)nn2c1

1. 5.30 to 6.30
2. < 5.30

---

// compounds with Ki on Tyrosine-protein kinase JAK3 (Homo sapiens, UniProt P52333), multi-source literature

Record excerpt, results attached:
compound | result
O=C1CCC(C(=O)Nc2nc(-c3ncnc4[nH]ccc34)cs2)C1 (stereo not shown) | < 100 nM
COCCCNC(=O)c1cccc(-c2cnc3c(-c4ccccn4)c(N)nn3c2)n1 | > 5000 nM

For every listed record, write down its Ki.
1. O=C(NCC(F)(F)F)[C@H]1CCCN1c1ccnc(-c2c[nH]c3ccc(Cl)cc23)n1
2. C[C@H](Nc1cc(-c2c(N)nn3cc(F)cnc23)ncn1)c1ccc(F)cc1F

10000 to 50000 nM
10 to 100 nM

---

// molecules with Ki on UniProt:P52333, multi-source literature

molecule | parameter_measured | result
CCCCN(CCC#N)C(=O)c1cc(-c2ncnc3[nH]ccc23)c[nH]1 | Ki | < 100 nM
CC1CCCN1C(=O)c1ccc(-c2ncnc3[nH]ccc23)o1 (stereo not shown) | Ki | 100 to 500 nM
CC(C)Oc1cccc(Nc2ncn(-c3ccccc3)n2)c1 | Ki | > 1000 nM
Nc1nc(Nc2ccc(F)cc2)nn1-c1cc(NCC(=O)NCC(F)(F)F)ncn1 | Ki | ≤ 1000 nM
Nc1nn2cc(-c3ccncc3)cnc2c1-c1cc(Nc2ccccc2)ncn1 | Ki | < 500 nM
CC[C@@H]1CC[C@@H](CC)N1C(=O)c1cc(-c2ncnc3[nH]ccc23)co1 | Ki | 100 to 500 nM

For every listed record, write down its Ki.
1. CN(C)CCCc1cnc2c(-c3ccccn3)c(N)nn2c1
2. CC(C)[C@@](C)(Nc1ccnc(-c2c[nH]c3ncncc23)n1)C(=O)NCC(F)(F)F
3. CN(C)CCNc1cc(-c2cnc3c(-c4ccccn4)c(N)nn3c2)ccn1
4. COc1ccc(-c2cnc3c(N)c(N)nn3c2)cc1

["> 5000 nM", "< 500 nM", "> 5000 nM", "> 5000 nM"]

---

// compounds with Ki on Tyrosine-protein kinase JAK3 (Homo sapiens), multi-source literature

compound | result
Nc1nn2cc(N3CCCCC3)cnc2c1-c1ccccn1 | > 5000 nM
CN1CCCN(c2cc(-c3cnc4c(-c5ccccn5)c(N)nn4c3)ccn2)CC1 | > 5000 nM
CCOC(=O)c1cnc(-c2c[nH]c3ncc(Cl)cc23)nc1N1CCC[C@@H]1C(=O)N(C)CC(F)(F)F | ≥ 100 nM
c1nc(-c2cnn(C3CCCC3)c2)c2cc[nH]c2n1 | < 100 nM
Nc1nn2cccnc2c1-c1cc(OCc2ccc(C(F)(F)F)cc2)ncn1 | > 5000 nM
COC[C@H](C)Nc1cc(-c2c(N)nn3cc(C)cnc23)ncn1 | 500 to 5000 nM
O=C(NCC(F)(F)F)[C@@H]1CNCCN1c1nc(-c2c[nH]c3ncccc23)ncc1F | ≥ 100 nM
CC(=O)N1[C@H](C)CN(c2cc(-n3cnc(Nc4ccc(N5CCN(C(=O)OC(C)(C)C)CC5)cc4)n3)ccn2)C[C@@H]1C | 10 to 1000 nM

For every listed record, write down its Ki.
1. N#Cc1cccc(Nc2nccc(-c3ccc4c(c3)N(Cc3cccnc3)C(=O)CO4)n2)c1
2. Nc1nn2cccnc2c1-c1cc(NCc2ccco2)ncn1
3. Cc1cnc2c(-c3cc(N[C@H](CO)CC(C)C)ncn3)c(N)nn2c1

1: < 5000 nM; 2: 10 to 100 nM; 3: 500 to 5000 nM

For every listed record, write down its Ki.
1. Fc1cc(F)cc(C2Nc3ccccc3-c3ccnc4[nH]cc2c34)c1 (centres unmarked)
2. Nc1nn2cc(-c3ccc(N4CCSCC4)nc3)cnc2c1-c1ccccn1
3. O=C1COc2ccc(-c3ccnc(Nc4cccc(F)c4)n3)cc2N1Cc1ccccn1

1. 250 to 2500 nM
2. > 5000 nM
3. < 5000 nM
